Assignment: determine reported viability at 24 h, 1000 µM for the given compounds.
Test: Cytotoxicity on NCTC2544 at 24 hours (neutral red)
Format: cell-based
Settings: human, nctc2544 cells, 10^-3M, read-out: Cellular Viability Rate
Output spec: scalar in %, unitless text.

Can you share its viability at 24 h, 1000 µM? I mean this compound: CC1CCCCCC/C=C\CCCCCCCC(=O)O[C@H]2[C@H](O)[C@@H](O)[C@H](O[C@H]3[C@H](O1)O[C@H](CO)[C@@H](O)[C@@H]3O)O[C@@H]2CO (some centres unmarked) [Sophorolipid in Lactone Form]
6.17

Item CC(CCCCCC/C=C\CCCCCCCC(=O)O)O[C@@H]1O[C@H](CO)[C@@H](O)[C@H](O)[C@H]1O[C@@H]1O[C@H](CO)[C@@H](O)[C@H](O)[C@H]1O (some centres unmarked) [Sophorolipid in Acid Form] has what recorded viability at 24 h, 1000 µM?
100

###

Test: Cytotoxicity on NCTC2544 at 24 hours (neutral red)
Format: cell-based
Details: human, nctc2544 cells, 5.10-4M, read-out: Cellular Viability Rate
Experimental readout: viability at 24 h, 500 µM (%)
Please respond with the number in % and leave the unit unwritten.

Quick one: viability at 24 h, 500 µM for CC1CCCCCC/C=C\CCCCCCCC(=O)O[C@H]2[C@H](O)[C@@H](O)[C@H](O[C@H]3[C@H](O1)O[C@H](CO)[C@@H](O)[C@@H]3O)O[C@@H]2CO (some centres unmarked) [Sophorolipid in Lactone Form] ?
8.7

Any idea what viability at 24 h, 500 µM was measured for CC(CCCCCC/C=C\CCCCCCCC(=O)O)O[C@@H]1O[C@H](CO)[C@@H](O)[C@H](O)[C@H]1O[C@@H]1O[C@H](CO)[C@@H](O)[C@H](O)[C@H]1O (some centres unmarked) [Sophorolipid in Acid Form] ?
99.9

###

Assignment: determine reported viability at 24 h, 500 µM for the given compounds.
Assay: Cytotoxicity on L929 at 24 hours (neutral red)
Format: cell-based
Conditions: mouse, l929 cells, 5.10-4M, read-out: Cellular Viability Rate
Enter your answer as a number in %; do not include the unit.

Report viability at 24 h, 500 µM for CC(CCCCCC/C=C\CCCCCCCC(=O)O)O[C@@H]1O[C@H](CO)[C@@H](O)[C@H](O)[C@H]1O[C@@H]1O[C@H](CO)[C@@H](O)[C@H](O)[C@H]1O (some centres unmarked) [Sophorolipid in Acid Form] please.
99.2

Consider the compound shown here: CC1CCCCCC/C=C\CCCCCCCC(=O)O[C@H]2[C@H](O)[C@@H](O)[C@H](O[C@H]3[C@H](O1)O[C@H](CO)[C@@H](O)[C@@H]3O)O[C@@H]2CO (some centres unmarked) [Sophorolipid in Lactone Form] What is its recorded viability at 24 h, 500 µM?
6.63

###

Field: viability at 24 h, 5000 µM. Provide a value for each of the compounds that follow.
Test: Cytotoxicity on L929 at 24 hours (neutral red)
Assay type: cell-based
Settings: mouse, l929 cells, 5.10-3M, read-out: Cellular Viability Rate
The reply must contain the numeric value and, after it, the unit.

Fill in: viability at 24 h, 5000 µM of CC1CCCCCC/C=C\CCCCCCCC(=O)O[C@H]2[C@H](O)[C@@H](O)[C@H](O[C@H]3[C@H](O1)O[C@H](CO)[C@@H](O)[C@@H]3O)O[C@@H]2CO (some centres unmarked) [Sophorolipid in Lactone Form] is ___
5.44%

Look at this compound and give its reported viability at 24 h, 5000 µM. CC(CCCCCC/C=C\CCCCCCCC(=O)O)O[C@@H]1O[C@H](CO)[C@@H](O)[C@H](O)[C@H]1O[C@@H]1O[C@H](CO)[C@@H](O)[C@H](O)[C@H]1O (some centres unmarked) [Sophorolipid in Acid Form]
7.62%

Where do these numbers come from? They come from patent US5981497A.
